Measured Population Hoechst High Intensity Objects (%) values are reported for all entries that follow.
Test system: U2OS
Assay: Multiplex assay against U2OS
Type: toxicity, cell-based
Conditions: human, 24 h, 1 µM, compound concentration 1 uM
Provide only the numeric value, understood in %.

- SMILES: "CC(C)C[C@H](NC(=O)c1cc2ccccc2s1)C(=O)N1CCN(C(=O)[C@H](CO)NS(=O)(=O)c2ccc(Cl)cc2Cl)CC1"
  UNIT_INFO: "%"
  REPORTED_MEASUREMENT: 0

Problem: Which measured Population Hoechst High Intensity Objects (%) value corresponds to `COCCNc1cc(NC(=O)N2CCCc3cc(CN4CCOCC4=O)c(C=O)nc32)ncc1C#N` ?
Solution: 0

Problem: Which measured Population Hoechst High Intensity Objects (%) value corresponds to `O=c1ccc2ccc(OCCCCN3CCN(c4cccc5sccc45)CC3)cc2[nH]1` ?
Solution: 3

Problem: Which measured Population Hoechst High Intensity Objects (%) value corresponds to `CCn1cnc2c(-c3ccc(F)c(-c4ccc(S(=O)(=O)CC)cc4OC)c3)cnnc21` ?
Solution: 0

Problem: Which measured Population Hoechst High Intensity Objects (%) value corresponds to `Cl.Clc1cc2cc(c1)-c1cnn3ccc(nc13)NCCOCCO2` ?
Solution: 0

Problem: Which measured Population Hoechst High Intensity Objects (%) value corresponds to `COc1ccc(-n2c(C)c([N+](=O)[O-])c3ccc(O)cc32)cc1` ?
Solution: 0

Problem: Which measured Population Hoechst High Intensity Objects (%) value corresponds to `CN(C)c1ccnc2sc3c(=O)n(N4CCCCCC4)cnc3c12` ?
Solution: 2

Problem: Which measured Population Hoechst High Intensity Objects (%) value corresponds to `Clc1ccccc1C(c1ccccc1)(c1ccccc1)n1cccn1` ?
Solution: 0

Problem: Which measured Population Hoechst High Intensity Objects (%) value corresponds to `COc1ccccc1N1CCN(C[C@@H](C(=O)NC(C)(C)C)c2ccccc2)CC1.Cl.Cl` ?
Solution: 3

Problem: Which measured Population Hoechst High Intensity Objects (%) value corresponds to `CNc1nc(NCc2ncccn2)c2c(-c3ccc4ncccc4c3)c[nH]c2n1` ?
Solution: 0

Problem: Which measured Population Hoechst High Intensity Objects (%) value corresponds to `CN(C)CCOc1ccc(/C(=C(/CCCO)c2ccccc2)c2ccc(O)cc2)cc1` ?
Solution: 0

* * *

System: HEK-293T
Experiment: Multiplex assay against HEK293T
Type: toxicity, cell-based
Settings: human, 12 h, 1 µM, compound concentration 1 uM
PROPERTY: Population Membrane Permeable-Phenotype (%)
Provide the measurement as a number trailed by its unit.

- COMPOUND: "FC(F)(F)c1ccccc1-c1cc(C(F)(F)F)c2[nH]c(C3=NOC4(CCCCC4)C3)nc2c1"
  REPORTED_MEASUREMENT: "0%"

Problem: Which measured Population Membrane Permeable-Phenotype (%) value corresponds to Cl.Clc1ccc2nsnc2c1NC1=NCCN1 [TIZANIDINE HYDROCHLORIDE] ?
Solution: 0%

Problem: Which measured Population Membrane Permeable-Phenotype (%) value corresponds to `CC[C@H]1OC(=O)[C@H](C)[C@@H](O[C@H]2C[C@@](C)(OC)[C@@H](O)[C@H](C)O2)[C@H](C)[C@@H](O[C@@H]2O[C@H](C)C[C@H](N(C)C)[C@H]2O)[C@@]2(C)CC(C)=C(O2)[C@H](C)[C@@H](O)[C@]1(C)O` ?
Solution: 0%

* * *

Tested on: HEK-293T
Test: Multiplex assay against HEK293T
Type: toxicity, cell-based
Details: human, 24 h, 1 µM, compound concentration 1 uM
PROPERTY: Population Hoechst High Intensity Objects (%)
Provide the measurement as a number trailed by its unit.

Known Population Hoechst High Intensity Objects (%) results, listed for orientation:
- MOLECULE: "CCNC1(C(N)=O)CCN(c2ncnc3c2nc(-c2ccccc2Cl)n3-c2ccc(Cl)cc2)CC1 [OTENABANT]"
  REPORTED_MEASUREMENT: "5%"
- MOLECULE: "FC(F)(F)c1ccccc1-c1cc(C(F)(F)F)c2[nH]c(C3=NOC4(CCCCC4)C3)nc2c1"
  REPORTED_MEASUREMENT: "0%"
- MOLECULE: "CC(C)(O)C(=O)N1CCN(c2ccc(C(F)(F)F)c(C3=C(c4c[nH]c5ccccc45)C(=O)NC3=O)c2)CC1"
  REPORTED_MEASUREMENT: "5%"
- MOLECULE: "CC(C)C[C@H](NC(=O)c1cc2ccccc2s1)C(=O)N1CCN(C(=O)[C@H](CO)NS(=O)(=O)c2ccc(Cl)cc2Cl)CC1"
  REPORTED_MEASUREMENT: "0%"
- MOLECULE: "O=C1c2c(Br)c(Br)c(Br)c(Br)c2C(=O)N1c1ncc[nH]1"
  REPORTED_MEASUREMENT: "0%"

Problem: Lookup: Population Hoechst High Intensity Objects (%) / HEK-293T / `COCCNc1cc(NC(=O)N2CCCc3cc(CN4CCOCC4=O)c(C=O)nc32)ncc1C#N`
Solution: 0%

Problem: Lookup: Population Hoechst High Intensity Objects (%) / HEK-293T / Cc1noc(C)c1-c1cnc2c(-c3ccc(C(=O)O)cc3)cn([C@@H](C)c3ccccn3)c2c1 [PLX-51107]
Solution: 0%

Problem: Lookup: Population Hoechst High Intensity Objects (%) / HEK-293T / COc1ccc(Cl)cc1[C@]1(F)C(=O)Nc2cc(C(F)(F)F)ccc21 [FLINDOKALNER]
Solution: 0%

Problem: Lookup: Population Hoechst High Intensity Objects (%) / HEK-293T / `Cl.Clc1cc2cc(c1)-c1cnn3ccc(nc13)NCCOCCO2`
Solution: 0%

* * *

Measured Population Hoechst High Intensity Objects (%) values are reported for all entries that follow.
Tested on: U2OS
Experiment: Multiplex assay against U2OS
Type: toxicity, cell-based
Settings: human, 24 h, 10 µM, compound concentration 10 uM

Known Population Hoechst High Intensity Objects (%) results, listed for orientation:
- COMPOUND: "N[C@@]1(C(=O)O)CO[C@H]2[C@H](C(=O)O)[C@H]21"
  REPORTED_MEASUREMENT: "1%"
- COMPOUND: "O=C(Nc1ccccc1Br)N[C@@H]1CCN(c2ccc(C(F)(F)F)cn2)C1"
  REPORTED_MEASUREMENT: "0%"

Problem: Which measured Population Hoechst High Intensity Objects (%) value corresponds to `CCNC1(C(N)=O)CCN(c2ncnc3c2nc(-c2ccccc2Cl)n3-c2ccc(Cl)cc2)CC1` ?
Solution: 3%

Problem: Which measured Population Hoechst High Intensity Objects (%) value corresponds to `FC(F)(F)c1ccccc1-c1cc(C(F)(F)F)c2[nH]c(C3=NOC4(CCCCC4)C3)nc2c1` ?
Solution: 0%

Problem: Which measured Population Hoechst High Intensity Objects (%) value corresponds to `CNc1nc(NCc2ncccn2)c2c(-c3ccc4ncccc4c3)c[nH]c2n1` ?
Solution: 0%

Problem: Which measured Population Hoechst High Intensity Objects (%) value corresponds to `COc1ccc(-n2c(C)c([N+](=O)[O-])c3ccc(O)cc32)cc1` ?
Solution: 0%

Problem: Which measured Population Hoechst High Intensity Objects (%) value corresponds to `CN(C)Cc1cccc(NC(=C2C(=O)Nc3cc(C(N)=O)ccc32)c2ccccc2)c1` ?
Solution: 0%

Problem: Which measured Population Hoechst High Intensity Objects (%) value corresponds to `COCCNc1nc2ccc(C#CC3(O)CCCCC3)cc2n1-c1ccnc(N)n1` ?
Solution: 0%

Problem: Which measured Population Hoechst High Intensity Objects (%) value corresponds to `COCCNc1cc(NC(=O)N2CCCc3cc(CN4CCOCC4=O)c(C=O)nc32)ncc1C#N` ?
Solution: 0%

Problem: Which measured Population Hoechst High Intensity Objects (%) value corresponds to `Cc1noc(C)c1-c1cnc2c(-c3ccc(C(=O)O)cc3)cn([C@@H](C)c3ccccn3)c2c1` ?
Solution: 0%

Problem: Which measured Population Hoechst High Intensity Objects (%) value corresponds to `COc1ccccc1N1CCN(C[C@@H](C(=O)NC(C)(C)C)c2ccccc2)CC1.Cl.Cl` ?
Solution: 5%

Problem: Which measured Population Hoechst High Intensity Objects (%) value corresponds to `CC(C)CC(=O)Nc1cncc(-c2ccc3[nH]nc(-c4nc5c(-c6cccc(F)c6)cncc5[nH]4)c3c2)c1` ?
Solution: 0%

Problem: Which measured Population Hoechst High Intensity Objects (%) value corresponds to `CN(C)CCOc1ccc(/C(=C(/CCCO)c2ccccc2)c2ccc(O)cc2)cc1` ?
Solution: 0%

Problem: Which measured Population Hoechst High Intensity Objects (%) value corresponds to `Clc1ccccc1C(c1ccccc1)(c1ccccc1)n1cccn1` ?
Solution: 0%

Problem: Which measured Population Hoechst High Intensity Objects (%) value corresponds to `Cc1onc(-c2ccccc2Cl)c1C(=O)N(C)c1ccc(Cl)cc1` ?
Solution: 3%

Problem: Which measured Population Hoechst High Intensity Objects (%) value corresponds to `CCn1cnc2c(-c3ccc(F)c(-c4ccc(S(=O)(=O)CC)cc4OC)c3)cnnc21` ?
Solution: 0%

Problem: Which measured Population Hoechst High Intensity Objects (%) value corresponds to Cl.Clc1ccc2nsnc2c1NC1=NCCN1 [TIZANIDINE HYDROCHLORIDE] ?
Solution: 2%

Problem: Which measured Population Hoechst High Intensity Objects (%) value corresponds to `O=C1c2c(Br)c(Br)c(Br)c(Br)c2C(=O)N1c1ncc[nH]1` ?
Solution: 0%

Problem: Which measured Population Hoechst High Intensity Objects (%) value corresponds to `CC(C)C[C@H](NC(=O)c1cc2ccccc2s1)C(=O)N1CCN(C(=O)[C@H](CO)NS(=O)(=O)c2ccc(Cl)cc2Cl)CC1` ?
Solution: 0%

Problem: Which measured Population Hoechst High Intensity Objects (%) value corresponds to `O=C(Nc1cc(C(F)(F)F)cc(C(F)(F)F)c1)c1cc(Cl)ccc1O` ?
Solution: 0%

Problem: Which measured Population Hoechst High Intensity Objects (%) value corresponds to `Cc1ccc(F)cc1C(=O)Nc1ccc(C(=O)N2Cc3cccn3Cc3ccccc32)c(Cl)c1` ?
Solution: 4%
